// provenance: paper PMC3997423

molecular target: HLA-A*68:01 (Homo sapiens, UniProt P04439, A269V/D185E/E176V/E277Q/E87N/F33Y/G231S/I121M/I166T/I218V/L180W/L300P/L318F/N151K/P208A/P217A/Q86R/R169H/T345S); assay: Peptide-HLA class I binding affinity; conditions: read-out: Measured affinity
Where no end group is shown, it is not given here.
experimental-readout: pKd
pKd here is simply -log10 of the concentration when that concentration is written in mol/L.

IN: Data request, read-out pKd, for TTFLQTMLR [IE1_33–41/IE2_33–41]
OUT: 9.00

----------
target: HLA-A*03:01 (Homo sapiens, UniProt P04439); experiment: biochemical
Where no end group is shown, it is not given here.
experimental-readout: Kd
Note: state the figure and append the unit.

{"residues": "RIKEHMLKK [IE1_99–107]", "Kd": "542 nM"}

IN: Value lookup for Kd; key = KLGGALQAK [IE1_184–192]
OUT: 216 nM

----------
Consider the following sequences and their measured pKd readings.
biological target: HLA-DRB1*03:01 (Homo sapiens, UniProt P01903+P01911, A100K/A102G/A103R/A169T/F55Y/I96L/K41T/L162R/M171V/P40S/Q125H/Q178H/Q39Y/R42S/S66N/T106N/T262R/W38E/Y61H); test: Peptide-HLA class II binding affinity; details: recombinant HLA class II α- and β-chains refolded with graded peptide, 48 h, 18°C; LOCI; ED50; read-out: Measured affinity
Sequence (P01903 26-254 limits assumed, other chains not shown): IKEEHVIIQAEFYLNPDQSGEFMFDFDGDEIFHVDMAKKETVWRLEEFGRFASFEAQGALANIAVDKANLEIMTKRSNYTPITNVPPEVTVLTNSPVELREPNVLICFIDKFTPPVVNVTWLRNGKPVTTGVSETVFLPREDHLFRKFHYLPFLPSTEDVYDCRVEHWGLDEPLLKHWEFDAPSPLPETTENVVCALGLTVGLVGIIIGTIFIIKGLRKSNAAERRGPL
Where no end group is shown, it is not given here.
Interpret pKd as the negative base-10 log of the concentration measured in mol/L.

{"residues": "VKQIKVRVDMVRHRI [IE1_86–100]", "experimental-readout": "pKd", "value-observed": 8.40}

IN: Would you kindly share the measured pKd for VRVDMVRHRIKEHML [IE1_91–105] ?
OUT: 8.00

----------
target: HLA-B*13:02 (Homo sapiens, UniProt P01889, A65T/A93T/A95T/D138N/D201E/D98Y/E176V/E204Q/E69M/E70A/G107R/K202T/L105A/L119W/N104T/N87E/Q94N/R106L/R155S/R169L/R180L/S101N/S121T/S35A/S48T/V127L/V36M/Y140L/Y91S); assay: Peptide-HLA class I binding affinity; settings: read-out: Measured affinity
Where no end group is shown, it is not given here.
experimental-readout: pKd
By convention, pKd is the negative base-10 log of a molar concentration.

IN: Which value of pKd has been reported for YILGADPLRV [IE1_354-363] in the records?
OUT: 7.06

----------
target: HLA-B*08:01 (Homo sapiens, UniProt P01889, A93T/A95T/D138N/E176V/E187T/K202T/Q94N/R180D/S35A/V36M/Y33D/Y91F); assay: biochemical
Where no end group is shown, it is not given here.
experimental-readout: pKd
Remember the convention: pKd equals -log10 of concentration in molar.

{"residues": "QIKVRVDMV [IE1_88–96]", "experimental-readout": "pKd", "value-observed": 6.00}

IN: Any idea what its pKd is? The sequence is QIKVRVDM [IE1_88–95]
OUT: 6.24

----------
biological target: HLA-DRB3*01:01 (Homo sapiens, UniProt P01903+P79483); construct: made in house; test: Peptide-HLA class II binding affinity; conditions: recombinant HLA class II α- and β-chains refolded with graded peptide, 48 h, 18°C; LOCI; ED50; read-out: Measured affinity
Where no end group is shown, it is not given here.
experimental-readout: Kd (nM)
Dear colleague, please return just the value in nM, with no unit written.

IN: Entry under review: VKQIKVRVDMVRHRI [IE1_86–100] . Reported Kd?
OUT: 109

----------
target: HLA-C*06:02 (Homo sapiens, UniProt P10321, A176E/A330V/C350S/L171W/L180W/L218V/M285V/M309V/M331V/N104K/P208H/Q277E/Q291P/R121W/S101N/S123Y/S297R/T329A/T363A/V319A/V328M); assay: Peptide-HLA class I binding affinity; settings: read-out: Measured affinity
Where no end group is shown, it is not given here.
experimental-readout: pKd
pKd here is simply -log10 of the concentration when that concentration is written in mol/L.

IN: Data request, read-out pKd, for QIKVRVDM [IE1_88–95]
OUT: 8.52

----------
target: HLA-DRB1*01:01 (Homo sapiens, UniProt P01903+P01911, A100R/D57E/F55L/F60I/F76Y/I96L/L162R/M171V/P40L/Q125E/R42F/V115G/Y59C); assay: Peptide-HLA class II binding affinity; settings: read-out: measured affinity
Where no end group is shown, it is not given here.
experimental-readout: pKd
Please treat pKd as minus the base-10 logarithm of the molar concentration.

IN: Quick one: pKd for FLMEHTMPVTHPPEV [IE2_443–457] ?
OUT: 8.70
